cell viability by entry:
Test system: HepG2
Procedure details: cell viability relative to DMSO; higher = less toxic
Run parameters: 72 h; 10 nM
Write the value in % as a bare number.

See these solved cases before continuing.
Molecule	Measurement units	cell viability
CC(C)OC(=O)CNC(=O)[C@H](CS)NC(=O)CC[C@H](N)C(=O)O	%	103
CCOc1cc(N)c(Cl)cc1C(=O)NCC1CN(Cc2ccc(F)cc2)CCO1 (stereo not given) [mosapride]	%	99.7
CC(C)C(=O)c1c(C(C)C)nn2ccccc12	%	101
CC1(C)CC(=O)C(C2C3=C(CC(C)(C)CC3=O)Oc3ccccc32)C(=O)C1 (stereo not given)	%	103
Nc1ncnc2c1c(-c1ccc(Oc3ccccc3)cc1)nn2C1CCCC1	%	101

Look at this molecule and give its reported cell viability. Oc1noc2c1CCNC2
101

Look at this molecule and give its reported cell viability. CCCNCC(O)COc1ccccc1C(=O)CCc1ccccc1 (stereo not given)
94

Look at this molecule and give its reported cell viability. Clc1cccc2c1CN(C1=NCCN1)C2
101

Look at this molecule and give its reported cell viability. O=C1CCC[C@@H]2[C@H]3C[C@@H](CN12)[C@@H]1CCCCN1C3
95.7

Look at this molecule and give its reported cell viability. CC(=O)N[C@@H](Cc1c[nH]c2ccccc12)C(=O)OCc1cc(C(F)(F)F)cc(C(F)(F)F)c1
106

Look at this molecule and give its reported cell viability. CC(=O)O[C@]1(C(C)=O)CC[C@H]2[C@@H]3C[C@H](C)C4=CC(=O)CC[C@]4(C)[C@H]3CC[C@@]21C [medroxyprogesterone-acetate]
103

Look at this molecule and give its reported cell viability. COCC(=O)Nc1c(I)c(C(=O)NCC(O)CO)c(I)c(C(=O)N(C)CC(O)CO)c1I (stereo not given) [iopromide]
89.1

Look at this molecule and give its reported cell viability. CC(C)(C)CC(=O)Nc1c(F)cc(C(=O)/N=c2\sccn2COP(=O)(O)O)cc1F
114

Look at this molecule and give its reported cell viability. CCCCCOc1ccc(-c2cc(-c3ccc(C(=O)N[C@H]4C[C@@H](O)[C@@H](O)NC(=O)[C@@H]5[C@@H](O)[C@@H](C)CN5C(=O)[C@H]([C@H](O)CC(N)=O)NC(=O)[C@H]([C@H](O)[C@@H](O)c5ccc(O)c(OS(=O)(=O)O)c5)NC(=O)[C@@H]5C[C@@H](O)CN5C(=O)[C@H]([C@@H](C)O)NC4=O)cc3)no2)cc1
117

Look at this molecule and give its reported cell viability. NNc1nncc2ccccc12 [hydralazine]
106

====

Test system: Calu-3
Procedure details: cell viability relative to DMSO; higher = less toxic
Run parameters: 72 h; 10 nM
Endpoint label: cell viability (%)
Write the value in % as a bare number.

See these solved cases before continuing.
>>> print(df.to_string())
                                   compound  endpoint_label  quantitative_result
0  Cc1cc(Nc2cc(C)c(C#N)c(N[C@@H](C)CCCC(C)(C)O)n2)n[nH]1  cell viability                 89.4
1  C=C1CC[C@H](O)C/C1=C/C=C1\CCC[C@]2(C)[C@@H]([C@H](C)/C=C/[C@H](C)C(C)C)CC[C@@H]12  cell viability                 89.2
2          C[N+](C)(C)CCCCCCCCCC[N+](C)(C)C  cell viability                  114
3     Cc1cc(C)c(/C=C2\C(=O)Nc3ccccc32)[nH]1  cell viability                 87.4

What value of cell viability on Calu-3 does O=C(NC(O)C(Cl)(Cl)Cl)NC(O)C(Cl)(Cl)Cl (stereo not given) have?
96.2
